Please go through the items and note down their boiling point.
Give bare numbers, in °C.

Hey, can you go through the list below and give me boiling point for every item?
1. BrC1CCCC1
2. CCC(O)CN (stereo unspecified)
3. CNCCNC
4. CN(C)CCN(C)C
5. CCC(C)(C)OC
6. CC(C)(C)C(=O)OC(=O)C(C)(C)C

OUTPUT:
138
169
120
121
86.3
193

Hey, can you go through the list below and give me boiling point for every item?
1. CC(C)(c1ccccc1)c1ccccc1
2. CCCC/C=C\C(C)(C)O
3. O=c1cccc[nH]1
4. CCOC(=O)C(F)(F)F
5. Nc1cc(Cl)c(Cl)cc1Cl

OUTPUT:
282
177
280
61
270

Hey, can you go through the list below and give me boiling point for every item?
1. O=C=Nc1ccc(N=C=O)cc1
2. c1ccnnc1
3. CCc1ccc(O)cc1
4. CC1=CC(=O)[C@H]2C[C@@H]1C2(C)C
5. Ic1cccs1
6. FC(F)(F)CCl

OUTPUT:
1: 260; 2: 208; 3: 218; 4: 228; 5: 181; 6: 6.1

Hey, can you go through the list below and give me boiling point for every item?
1. ClC=CBr
2. C1CCC(CCCC2CCCC2)CC1
3. NNCCO
4. c1ccc2c(c1)CCNC2

OUTPUT:
1. 84.6
2. 270
3. 219
4. 232

* * *

Please go through the items and note down their boiling point.
Numbers only, in °C.

Cc1ccc(C)c(N)c1 = 214
NC1CCCCC1 = 134
Cc1cccc2sc3nncn3c12 = 275
C[Si](C)(Cl)C(Cl)Cl = 149
Nc1ccc(C=CC(=O)O)cc1 = 285

Hey, can you go through the list below and give me boiling point for every item?
1. CCC(Cl)(Cl)Cl
2. C1CSC1
3. CCOC(OCC)N(C)C

OUTPUT:
1. 108
2. 95
3. 129

* * *

Please go through the items and note down their melting point.
Numbers only, in °C.

Before answering, review these 4 worked examples.
CCCCNCC(=O)Nc1c(C)cccc1Cl = 45.5
C=CCCCCCCCCC(=O)OC = -27.5
CC(C)(S)C(=O)O = 47
O=C(c1ccccc1)c1ccc(-c2ccccc2)cc1 = 100

Hey, can you go through the list below and give me melting point for every item?
1. Cn1cncc1C[C@H]1COC(=O)[C@@H]1[C@@H](O)c1ccccc1
2. O=C(O)c1cc(S(=O)(=O)O)ccc1O
3. CN(CC(=O)O)N=O
4. CC1(C)S[C@@H]2[C@H](N3C(=O)C(c4ccccc4)NC3(C)C)C(=O)N2[C@H]1C(=O)O (some centres undefined)
5. O=C(O)Cc1cccc(Br)c1
6. NNC(=O)NN
7. COc1ccc(O)c(C=O)c1

OUTPUT:
1. 179
2. 120
3. 66.5
4. 190
5. 101
6. 154
7. 4

Hey, can you go through the list below and give me melting point for every item?
1. CCCCCCCCCCN
2. c1ccc2c(c1)Cc1ccccc1C2
3. CC1(O)CCCCC1
4. c1ccc([Si](c2ccccc2)(c2ccccc2)c2ccccc2)cc1
5. COCC(C)O (centres undefined)

OUTPUT:
1. 17
2. 111
3. 25
4. 236
5. -95

* * *

READOUT LABEL: melting point (°C)
One number for each entry, in °C.

CC(C)Nc1nc(Cl)nc(NC2CC2)n1 = 167
Nc1cc2ccccc2cc1C(=O)O = 216
Clc1cccnc1Cl = 66
C=C(C)C(C)CC (stereo not drawn) = -134
c1ccc2c(c1)Sc1ccccc1N2CC1CN2CCC1CC2 (stereo not drawn) = 130
O=C1OC(=O)c2cccc3cccc1c23 = 270
CCCCCCCCNCCCCCCCC = 35.5
Cc1cccc(I)c1O = 15.5

Hey, can you go through the list below and give me melting point for every item?
1. CCC1CCCCC1
2. O=S1(=O)CCCO1

OUTPUT:
[-111, 31.5]

These entries and their values trace back to the OPERA property sets (Mansouri et al. 2018).
